assay remarks: Compound was evaluated for 50% lethal dose in mice; LD50 range 300-1000 mg/kg
Assay type: ADME, organism-based
particulars: mouse, in vivo
readout type: LD50 (mg/kg)

In [3]: df
Out[3]:
                smiles  quantitative_readout
0  OCCN(CCO)CCc1ccccc1                  1000

###

List of LD50 values.
assay remarks: Compound was evaluated for 50% lethal dose in mice; LD50 range 100-300 mg/kg
Format: ADME, organism-based
particulars: mouse, in vivo
readout type: LD50

>>> df
                          smiles  readout_type     result
0  CCN(CCO)CCC(c1ccccc1)c1ccccc1          LD50  300 mg/kg
1  OCCN(CCO)CC(c1ccccc1)c1ccccc1          LD50  300 mg/kg

Every entry's value here was drawn from ChEMBL document CHEMBL1122811.
